Biological target: HLA-DRB1*0401 (Homo sapiens, UniProt P01903+P01911, A100K/A169T/F76Y/I96L/K127E/L162R/M171V/N62H/P40V/Q125Y/R42H/S133A/S149N/S66Y/V115G/V209L/W38E)
Construct: homozygous lymphoblastoid B-cell lines (International Histocompatibility Working Group); host or cells: human HLA-DRB1*0401 homozygous lymphoblastoid B-cell line
Experiment: biochemical
Assay type: binding
Conditions: 24 h, read-out: Binding percentage
Ends that are not written are not given here.
measurement.name: inhibition at 250 µM (%)

NVRKFFLNDVSSIRH [compound 39148] = 83
QTAFRKFFKKIISLG [compound 39150] = 83.6
KLKYIFKRRKTMKKK [compound 39151] = 65.3
LKPFYSLETMLMANS [compound 39147] = 92.6
NYEIYIASSSNIYLM [compound 39046] = 91.8
DKSFISEANSFRNEE [compound 39149] = 85.8
TPIIVKYDNTHAKNR [compound 39048] = 90.7

* * *

Biological target: HLA-DRB1*0701 (Homo sapiens, UniProt P01903+P01911, A100R/A102G/A103Q/D57E/D86V/E43K/F76Y/K127E/L162R/M171V/P40G/Q125H/Q99D/R33Q/R42Y/R54Q/S133A/S66F/T210M/V115G/Y107V/Y59L/Y89S)
Assay: biochemical
Assay type: binding
Ends that are not written are not given here.
measurement.name: IC50 (µM)

LKPFYSLETMLMANS [compound 39147] = 26
QTAFRKFFKKIISLG [compound 39150] = 51.8
NVRKFFLNDVSSIRH [compound 39148] = 39.7
NYEIYIASSSNIYLM [compound 39046] = 23.3

* * *

The following sequences are listed with their measured inhibition at 250 µM values.
Biological target: HLA-DRB1*1101 (Homo sapiens, UniProt P01903+P01911, A100R/A169T/A87E/I96F/K41T/L162R/M171V/P40S/Q125H/Q178H/Q39Y/Q99D/R42S/S66Y/T262R/V115G/W38E)
Sequence (P01903 26-254 limits assumed, other chains not shown): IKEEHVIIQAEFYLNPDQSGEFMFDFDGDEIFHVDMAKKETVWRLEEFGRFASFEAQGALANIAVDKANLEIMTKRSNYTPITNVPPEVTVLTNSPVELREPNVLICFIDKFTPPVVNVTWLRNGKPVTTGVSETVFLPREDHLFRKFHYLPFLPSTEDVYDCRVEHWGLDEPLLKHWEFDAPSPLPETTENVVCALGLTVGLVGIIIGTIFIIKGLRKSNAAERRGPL
Experiment: biochemical
Format: binding
Conditions: 24 h, read-out: Binding percentage
Ends that are not written are not given here.
measurement.name: inhibition at 250 µM (%)

NYEIYIASSSNIYLM [compound 39046] = 82.9
TPIIVKYDNTHAKNR [compound 39048] = 16.8
LKPFYSLETMLMANS [compound 39147] = 79.3
KLKYIFKRRKTMKKK [compound 39151] = 78.5
QTAFRKFFKKIISLG [compound 39150] = 87.6
DKSFISEANSFRNEE [compound 39149] = 36.5
NVRKFFLNDVSSIRH [compound 39148] = 73.8

* * *

Molecular target: HLA-DRB1*0401 (Homo sapiens, UniProt P01903+P01911, A100K/A169T/F76Y/I96L/K127E/L162R/M171V/N62H/P40V/Q125Y/R42H/S133A/S149N/S66Y/V115G/V209L/W38E)
Construct: homozygous lymphoblastoid B-cell lines (International Histocompatibility Working Group); host or cells: human HLA-DRB1*0401 homozygous lymphoblastoid B-cell line
Experiment: biochemical
Format: binding
pIC50: −log10 of the molar value. Ends that are not written are not given here.
measurement.name: pIC50

QTAFRKFFKKIISLG [compound 39150] = 4.47
NVRKFFLNDVSSIRH [compound 39148] = 4.92
TPIIVKYDNTHAKNR [compound 39048] = 4.92
NYEIYIASSSNIYLM [compound 39046] = 4.55
KLKYIFKRRKTMKKK [compound 39151] = 4.40
LKPFYSLETMLMANS [compound 39147] = 5.34
DKSFISEANSFRNEE [compound 39149] = 4.58
